This collection of values is drawn from patent US20250332178A1.

- System: M. chelonae
- Assay notes: MIC (CLSI broth dilution), RGM isolates
- Format: cell-based
- Study conditions: Mycobacteroides chelonae, isolate 19, M. chelonae; read-out: MIC
Measured endpoint: MIC

What is its MIC for M. chelonae? Entry: NC[C@H]1O[C@H](O[C@H]2[C@H](O)[C@@H](O[C@H]3O[C@H](CO)[C@@H](O)[C@H](N)[C@H]3O)[C@H](N)C[C@@H]2N)[C@H](N)C[C@@H]1O [TOB, tobramycin]
≤ 2 µg/mL

// same read-out, input: CO[C@@]1(NC(=O)Cc2cccs2)C(=O)N2C(C(=O)O)=C(COC(N)=O)CS[C@@H]21 [FOX, cefoxitin]
> 64 µg/mL

Same thing, different compound: CN(C)c1cc(CNCC(C)(C)C)c(O)c2c1C[C@H]1C[C@H]3[C@H](N(C)C)C(O)=C(C(N)=O)C(=O)[C@@]3(O)C(O)=C1C2=O [OMC]
0.25 µg/mL
